Assay: Toxicity to normal healthy cells (Table 2)
Format: cell-based
Details: kerotinoyle cells, first value, read-out: EC-50 (the source's name)
Attribute measured: CC50 (µg/mL)
Form entry: value (µg/mL) — number only.

Completed entries (count: 2):
Answer with the recorded CC50 of COc1cccc2c1C(=O)c1c(O)c3c(c(O)c1C2=O)C[C@@](O)(C(=O)CO)C[C@@H]3O[C@H]1C[C@H](N)[C@H](O)[C@H](C)O1 only.
0.0035

Answer with the recorded CC50 of COC(=O)Nc1nc2ccccc2[nH]1 [carbendazim, methyl 2-benzimidazole carbamate] only.
0.752

Now consider the entry below.
Answer with the recorded CC50 of CCCCNC(=O)n1c(NC(=O)OC)nc2ccccc21 only.
3.26

* * *

Assay: Toxicity to normal healthy cells (Table 2)
Type: cell-based
Details: fibroblasts, second value, read-out: EC-50 (the source's name)
Measured CC50, listed per entry.
Could you give the number and then its unit, please?

Completed entries (count: 2):
Answer with the recorded CC50 of CCCCNC(=O)n1c(NC(=O)OC)nc2ccccc21 only.
2.81 µg/mL

Answer with the recorded CC50 of COC(=O)Nc1nc2ccccc2[nH]1 [carbendazim, methyl 2-benzimidazole carbamate] only.
1.42 µg/mL

Now consider the entry below.
Answer with the recorded CC50 of COc1cccc2c1C(=O)c1c(O)c3c(c(O)c1C2=O)C[C@@](O)(C(=O)CO)C[C@@H]3O[C@H]1C[C@H](N)[C@H](O)[C@H](C)O1 only.
0.1 µg/mL

* * *

Assay: Toxicity to normal healthy cells (Table 2)
Format: cell-based
Conditions: kerotinoyle cells, second value, read-out: EC-50 (the source's name)
Attribute measured: CC50 (µg/mL)
Form entry: value (µg/mL) — number only.

Completed entries (count: 2):
Answer with the recorded CC50 of COC(=O)Nc1nc2ccccc2[nH]1 [carbendazim, methyl 2-benzimidazole carbamate] only.
0.822

Answer with the recorded CC50 of COc1cccc2c1C(=O)c1c(O)c3c(c(O)c1C2=O)C[C@@](O)(C(=O)CO)C[C@@H]3O[C@H]1C[C@H](N)[C@H](O)[C@H](C)O1 [Adriamycin] only.
0.0093

Now consider the entry below.
Answer with the recorded CC50 of CCCCNC(=O)n1c(NC(=O)OC)nc2ccccc21 [benomyl] only.
2.4

* * *

Assay: Toxicity to normal healthy cells (Table 2)
Format: cell-based
Settings: fibroblasts, first value, read-out: EC-50 (the source's name)
Measured CC50, listed per entry.
Form entry: value (µg/mL) — number only.

Answer with the recorded CC50 of COC(=O)Nc1nc2ccccc2[nH]1 [carbendazim, methyl 2-benzimidazole carbamate] only.
1.52

Answer with the recorded CC50 of CCCCNC(=O)n1c(NC(=O)OC)nc2ccccc21 only.
3.24

Now consider the entry below.
Answer with the recorded CC50 of COc1cccc2c1C(=O)c1c(O)c3c(c(O)c1C2=O)C[C@@](O)(C(=O)CO)C[C@@H]3O[C@H]1C[C@H](N)[C@H](O)[C@H](C)O1 only.
0.065
